Listed below: normalized growth values for each entry.
experiment: chemical genetic growth profiling, strain panel (AID 1159580);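 also: tested at 20 µM; growth read once vehicle control cultures reached saturation at 30 °C; 1 = growth at the plate median or of vehicle wells; lower values mean less growth of the strain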; conditions: S. cerevisiae deletion strains, growth OD, locus YGR078C, strain PAC10, active compounds read low
About 2,000 (36%) of roughly 5,500 compounds were called active. About 18% were inconclusive and are not listed. The list shows a part of the results.
observable: normalized growth

>>> print(df.to_string())
                                    molecule  observed_result
 0               CNC(=O)Oc1cccc2c1OC(C)(C)C2             1.01
 1  CC(=O)O[C@@H]1C2CC[C@@H]3C1(C[C@@H](O)[C@@]1(O)[C@@H](C[C@H](O)C1(C)C)[C@]3(C)O)C[C@@]2(C)O (stereo partly specified)             1.01
 2  CCCN(CCC)c1c([N+](=O)[O-])cc(C(F)(F)F)cc1[N+](=O)[O-]             1.02
 3            CC(=O)OCCCCN1C(=O)c2ccccc2C1=O             1.01
 4  N[C@@H](C(=O)N[C@@H]1C(=O)N2C(C(=O)O)=C(Cl)CS[C@H]12)c1ccccc1             1.01
 5                CCOC(=O)CC(=O)CSc1nnc(N)s1             1.02
 6                       CC(C)=CCC/C(C)=C/CO                1
 7  O=[N+]([O-])c1cc(C(F)(F)F)ccc1Oc1cc(C(F)(F)F)cc(C(F)(F)F)c1             1.01
 8       COc1ccccc1NC(=S)NCCc1ccc(OC)c(OC)c1            0.998
 9                Cn1c(=O)[nH]c2nc[nH]c2c1=O             1.01
10  C[C@]12[C@H](O)CC3C(CC[C@@H]4C[C@@H](O)CC[C@]34C)[C@@]1(O)CC[C@@H]2C1=CC(=O)OC1 (stereo partly specified)             1.01
11             Cn1c(=O)c2c(ncn2CCCl)n(C)c1=O            0.975
12  CC(C)C1CCC(C(=O)N[C@@H](Cc2ccccc2)C(=O)O)CC1 (stereo partly specified)            0.984
13  COC1=CC23CCCN2CCc2cc4c(cc2C3C1O)OCO4 (stereo unspecified)                1
14  COc1c([N+](=O)[O-])cc(C(F)(F)F)cc1[N+](=O)[O-]            0.975
15   CC(C)NP(=O)(NC(C)C)OP(=O)(NC(C)C)NC(C)C            0.991
